# Test system: Pseudomonas aeruginosa
# MEASUREMENT PROTOCOL: Antibacterial activity against carbapenem-resistant Pseudomonas aeruginosa clinical isolate 19-3 assessed as inhibition of bacterial growth incubated for 16 to 20 hrs by CLSI protocol based broth microdilution method
# Assay type: functional
# REPORTED CONDITIONS: time 16-20 hrs
Bridge positions count the residues as written; N and C are the ends. Square brackets hold non-standard residues; d marks the D form. Peptide text beside a SMILES is read from it. * marks the point of attachment. Heptanoyl(6-Me) = CC(C)CCCCC(=O)*; Octanoyl = CCCCCCCC(=O)*; Dab = NCC[C@H](N)C(=O)O; Dap = NC[C@H](N)C(=O)O
QUANTITY NAME: MIC (µg/mL)
Number in µg/mL, nothing else.

Consider the worked cases shown below.
COMPOUND	ASSAY SYSTEM	MIC / µg/mL
CC(C)CCCCC(=O)N[C@@H](CCN)C(=O)N[C@H](C(=O)N[C@@H](CN)C(=O)N[C@H]1CCNC(=O)[C@H]([C@@H](C)O)NC(=O)[C@H](CCN)NC(=O)[C@H](CCN)NC(=O)[C@H]([C@@H](C)O)NC(=O)[C@@H](Cc2ccccc2)NC(=O)[C@H](CCN)NC1=O)[C@@H](C)O ({Heptanoyl(6-Me)}-[Dab]T[Dap][Dab][Dab][dF]T[Dab][Dab]T; lactam 4-C)	Pseudomonas aeruginosa	0.125
CCCCCCCC(=O)N[C@@H](CCN)C(=O)N[C@H](C(=O)N[C@@H](CCN)C(=O)N[C@H]1CCNC(=O)[C@H]([C@@H](C)O)NC(=O)[C@H](CCN)NC(=O)[C@H](CCN)NC(=O)[C@H]([C@@H](C)O)NC(=O)[C@@H](CC(C)C)NC(=O)[C@H](CCN)NC1=O)[C@@H](C)O (Octanoyl-[Dab]T[Dab][Dab][Dab][dL]T[Dab][Dab]T; lactam 4-C)	Pseudomonas aeruginosa	0.5

Could you now consider this next compound?
In: Request the reported MIC associated with CCCCCCCC(=O)N[C@@H](CCN)C(=O)N[C@H](C(=O)N[C@@H](CCN)C(=O)N[C@H]1CCNC(=O)[C@H]([C@@H](C)O)NC(=O)[C@H](CCN)NC(=O)[C@H](CCN)NC(=O)[C@H]([C@@H](C)O)NC(=O)[C@@H](Cc2ccccc2)NC(=O)[C@H](CCN)NC1=O)[C@@H](C)O (Octanoyl-[Dab]T[Dab][Dab][Dab][dF]T[Dab][Dab]T; lactam 4-C)
Out: 0.5

====

Catalogue of MIC readings, one per entry.
# Tested on: Pseudomonas aeruginosa
# MEASUREMENT PROTOCOL: Antibacterial activity against carbapenem-resistant Pseudomonas aeruginosa clinical isolate 19-3 assessed as inhibition of bacterial growth incubated for 16 to 20 hrs by CLSI protocol based broth microdilution method
# Assay type: functional
# REPORTED CONDITIONS: time 16-20 hrs
Bridge positions count the residues as written; N and C are the ends. Square brackets hold non-standard residues; d marks the D form. Peptide text beside a SMILES is read from it. * marks the point of attachment. Heptanoyl(6-Me) = CC(C)CCCCC(=O)*; dOrn = NCCC[C@@H](N)C(=O)O; Orn = NCCC[C@H](N)C(=O)O; Dab = NCC[C@H](N)C(=O)O

COMPOUND	ASSAY SYSTEM	MIC
CC(C)CCCCC(=O)N[C@@H](CCN)C(=O)N[C@H](C(=O)N[C@H](CO)C(=O)N[C@H]1CCNC(=O)[C@H]([C@@H](C)O)NC(=O)[C@H](CCN)NC(=O)[C@H](CCN)NC(=O)[C@H](CC(C)C)NC(=O)[C@H](Cc2ccccc2)NC(=O)[C@H](CCN)NC1=O)[C@@H](C)O	Pseudomonas aeruginosa	2 µg/mL

In: What value of MIC has been reported for the following compound? CC(C)CCCCC(=O)N[C@@H](CCN)C(=O)N[C@H](C(=O)N[C@@H](CCCN)C(=O)N[C@H]1CCNC(=O)[C@H]([C@@H](C)O)NC(=O)[C@H](CCN)NC(=O)[C@H](CCN)NC(=O)[C@H]([C@@H](C)O)NC(=O)[C@@H](Cc2ccccc2)NC(=O)[C@H](CCN)NC1=O)[C@@H](C)O ({Heptanoyl(6-Me)}-[Dab]T[Orn][Dab][Dab][dF]T[Dab][Dab]T; lactam 4-C)
Out: 0.25 µg/mL

In: # iterate: CC(C)CCCCC(=O)N[C@@H](CCN)C(=O)N[C@H](C(=O)N[C@H](CO)C(=O)N[C@H]1CCNC(=O)[C@H]([C@@H](C)O)NC(=O)[C@H](CCCN)NC(=O)[C@H](CCN)NC(=O)[C@H]([C@@H](C)O)NC(=O)[C@@H](Cc2ccccc2)NC(=O)[C@H](CCN)NC1=O)[C@@H](C)O ({Heptanoyl(6-Me)}-[Dab]T[dS][Dab][Dab][dF]T[Dab][Orn]T; lactam 4-C)
Out: > 64 µg/mL

In: Param item: `CC(C)CCCCC(=O)N[C@@H](CCN)C(=O)N[C@H](C(=O)N[C@@H](CCCCN)C(=O)N[C@H]1CCNC(=O)[C@H]([C@@H](C)O)NC(=O)[C@H](CCN)NC(=O)[C@H](CCN)NC(=O)[C@H]([C@@H](C)O)NC(=O)[C@@H](Cc2ccccc2)NC(=O)[C@H](CCN)NC1=O)[C@@H](C)O`
Out: 4 µg/mL

In: Another: CC(C)CCCCC(=O)N[C@@H](CCN)C(=O)N[C@H](C(=O)N[C@H](CCCN)C(=O)N[C@H]1CCNC(=O)[C@H]([C@@H](C)O)NC(=O)[C@H](CCN)NC(=O)[C@H](CCN)NC(=O)[C@H]([C@@H](C)O)NC(=O)[C@@H](Cc2ccccc2)NC(=O)[C@H](CCN)NC1=O)[C@@H](C)O ({Heptanoyl(6-Me)}-[Dab]T[dOrn][Dab][Dab][dF]T[Dab][Dab]T; lactam 4-C)
Out: 1 µg/mL

In: Then what about the compound CC(C)CCCCC(=O)N[C@@H](CCCN)C(=O)N[C@H](C(=O)N[C@H](CO)C(=O)N[C@H]1CCNC(=O)[C@H]([C@@H](C)O)NC(=O)[C@H](CCN)NC(=O)[C@H](CCN)NC(=O)[C@H]([C@@H](C)O)NC(=O)[C@@H](Cc2ccccc2)NC(=O)[C@H](CCN)NC1=O)[C@@H](C)O ({Heptanoyl(6-Me)}-[Orn]T[dS][Dab][Dab][dF]T[Dab][Dab]T; lactam 4-C) ?
Out: 64 µg/mL

In: For `CC(C)C[C@@H]1NC(=O)[C@H](CCN)NC(=O)[C@@H](NC(=O)[C@@H](CO)NC(=O)[C@@H](NC(=O)[C@H](CCN)NC(=O)CCCCCCC(=O)O)[C@@H](C)O)CCNC(=O)[C@H]([C@@H](C)O)NC(=O)[C@H](CCN)NC(=O)[C@H](CCN)NC(=O)[C@H]([C@@H](C)O)NC1=O` then?
Out: 8 µg/mL

====

# Tested on: Pseudomonas aeruginosa
# MEASUREMENT PROTOCOL: Antibacterial activity against carbapenem-resistant Pseudomonas aeruginosa clinical isolate 19-3 assessed as inhibition of bacterial growth incubated for 16 to 20 hrs by CLSI protocol based broth microdilution method
# Format: functional
# REPORTED CONDITIONS: time 16-20 hrs
Bridge positions count the residues as written; N and C are the ends. Square brackets hold non-standard residues; d marks the D form. Peptide text beside a SMILES is read from it. * marks the point of attachment. Heptanoyl(6-Me) = CC(C)CCCCC(=O)*; X1 = CC[C@H](C)CCCCC(=O)*; dDab = NCC[C@@H](N)C(=O)O; Orn = NCCC[C@H](N)C(=O)O; dDap = NC[C@@H](N)C(=O)O; Dab = NCC[C@H](N)C(=O)O; Dap = NC[C@H](N)C(=O)O
Reported log10 MIC values for the following compounds.
All values: base-10 log of MIC in µg/mL.

The following compounds have reported results that may help.
COMPOUND	NUMBER
CC(C)CCCCC(=O)N[C@@H](CCN)C(=O)N[C@H](C(=O)N[C@H](CN)C(=O)N[C@H]1CCNC(=O)[C@H]([C@@H](C)O)NC(=O)[C@H](CCN)NC(=O)[C@H](CCN)NC(=O)[C@H]([C@@H](C)O)NC(=O)[C@@H](Cc2ccccc2)NC(=O)[C@H](CCN)NC1=O)[C@@H](C)O ({Heptanoyl(6-Me)}-[Dab]T[dDap][Dab][Dab][dF]T[Dab][Dab]T; lactam 4-C)	-0.90
CC[C@H](C)CCCCC(=O)N[C@@H](CCN)C(=O)N[C@H](C(=O)N[C@H](CCN)C(=O)N[C@H]1CCNC(=O)[C@H]([C@@H](C)O)NC(=O)[C@H](CCN)NC(=O)[C@H](CCN)NC(=O)[C@H]([C@@H](C)O)NC(=O)[C@@H](Cc2ccccc2)NC(=O)[C@H](CCN)NC1=O)[C@@H](C)O (X1-[Dab]T[dDab][Dab][Dab][dF]T[Dab][Dab]T; lactam 4-C)	0.00
C[C@@H](O)[C@@H]1NC(=O)[C@H](CCN)NC(=O)[C@H](CCN)NC(=O)[C@H]([C@@H](C)O)NC(=O)[C@H](Cc2ccccc2)NC(=O)[C@H](CCN)NC(=O)[C@@H](NC(=O)[C@@H](CO)NC(=O)[C@@H](NC(=O)[C@H](CCN)NC(=O)CCCCCCC(=O)O)[C@@H](C)O)CCNC1=O	0.60
CC(C)CCCCC(=O)N[C@@H](CN)C(=O)N[C@H](C(=O)N[C@H](CO)C(=O)N[C@H]1CCNC(=O)[C@H]([C@@H](C)O)NC(=O)[C@H](CCN)NC(=O)[C@H](CCN)NC(=O)[C@H]([C@@H](C)O)NC(=O)[C@@H](Cc2ccccc2)NC(=O)[C@H](CCN)NC1=O)[C@@H](C)O ({Heptanoyl(6-Me)}-[Dap]T[dS][Dab][Dab][dF]T[Dab][Dab]T; lactam 4-C)	0.60
CC(C)CCCCC(=O)N[C@@H](CCN)C(=O)N[C@H](C(=O)N[C@H](CO)C(=O)N[C@H]1CCNC(=O)[C@H]([C@@H](C)O)NC(=O)[C@H](CCN)NC(=O)[C@H](CCCN)NC(=O)[C@H]([C@@H](C)O)NC(=O)[C@@H](Cc2ccccc2)NC(=O)[C@H](CCN)NC1=O)[C@@H](C)O ({Heptanoyl(6-Me)}-[Dab]T[dS][Dab][Dab][dF]T[Orn][Dab]T; lactam 4-C)	0.90
CC(C)CCCCC(=O)N[C@@H](CCN)C(=O)N[C@H](C(=O)N[C@@H](CO)C(=O)N[C@H]1CCNC(=O)[C@H]([C@@H](C)O)NC(=O)[C@H](CCN)NC(=O)[C@H](CCN)NC(=O)[C@H]([C@@H](C)O)NC(=O)[C@@H](CC(C)C)NC(=O)[C@H](CCN)NC1=O)[C@@H](C)O	1.81

In: Quick one: log10 MIC of CC(C)CCCCC(=O)N[C@@H](CCN)C(=O)N[C@H](C(=O)N[C@H](CO)C(=O)N[C@H]1CCNC(=O)[C@H]([C@@H](C)O)NC(=O)[C@H](CCN)NC(=O)[C@H](CCN)NC(=O)[C@H]([C@@H](C)O)NC(=O)[C@@H](Cc2ccccc2)NC(=O)[C@H](CN)NC1=O)[C@@H](C)O ({Heptanoyl(6-Me)}-[Dab]T[dS][Dab][Dap][dF]T[Dab][Dab]T; lactam 4-C) ?
Out: 1.81

In: // repeat for CC(C)CCCCC(=O)N[C@@H](CCN)C(=O)N[C@H](C(=O)N[C@@H](CCN)C(=O)N[C@H]1CCNC(=O)[C@H]([C@@H](C)O)NC(=O)[C@H](CCN)NC(=O)[C@H](CCN)NC(=O)[C@H]([C@@H](C)O)NC(=O)[C@@H](Cc2ccccc2)NC(=O)[C@H](CCN)NC1=O)[C@@H](C)O ({Heptanoyl(6-Me)}-[Dab]T[Dab][Dab][Dab][dF]T[Dab][Dab]T; lactam 4-C) and report
Out: 0.00

In: Same for `CCCCCCCC(=O)N[C@@H](CCN)C(=O)N[C@H](C(=O)N[C@@H](CCN)C(=O)N[C@H]1CCNC(=O)[C@H]([C@@H](C)O)NC(=O)[C@H](CCN)NC(=O)[C@H](CCN)NC(=O)[C@H]([C@@H](C)O)NC(=O)[C@@H](CCC)NC(=O)[C@H](CCN)NC1=O)[C@@H](C)O`
Out: 0.00

In: // next record CC(C)CCCCC(=O)N[C@@H](CCN)C(=O)N[C@H](C(=O)N[C@H](CCN)C(=O)N[C@H]1CCNC(=O)[C@H]([C@@H](C)O)NC(=O)[C@H](CCN)NC(=O)[C@H](CCN)NC(=O)[C@H]([C@@H](C)O)NC(=O)[C@@H](Cc2ccccc2)NC(=O)[C@H](CCN)NC1=O)[C@@H](C)O ({Heptanoyl(6-Me)}-[Dab]T[dDab][Dab][Dab][dF]T[Dab][Dab]T; lactam 4-C)
Out: -0.30

Value source: ChEMBL document CHEMBL6078630
